# IC50 annotations
- tested_system: TRKA (Homo sapiens (Human), UniProt P04629)
- Sequence (P04629 441-796): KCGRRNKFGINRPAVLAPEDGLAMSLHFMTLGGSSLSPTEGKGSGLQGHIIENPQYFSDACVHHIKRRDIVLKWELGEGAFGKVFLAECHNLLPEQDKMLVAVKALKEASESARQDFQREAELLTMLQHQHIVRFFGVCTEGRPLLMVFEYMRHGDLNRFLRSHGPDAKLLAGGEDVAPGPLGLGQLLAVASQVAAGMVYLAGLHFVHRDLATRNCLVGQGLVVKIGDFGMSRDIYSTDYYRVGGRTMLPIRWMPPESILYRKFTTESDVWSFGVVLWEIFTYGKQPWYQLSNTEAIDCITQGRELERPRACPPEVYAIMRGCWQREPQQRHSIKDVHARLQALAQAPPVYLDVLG
- protocol_description: Isolated TRK enzyme assay (HTRF KinEASE-TK), TRKA
- Assay type: biochemical
- particulars: read-out: Trka enzyme (IC50)
All answers are understood in nM, so give the number only.

INSERT INTO assay_data (structure_smiles, measure_name, readout_unit, measured) VALUES
  ('CC(C)n1cc(C(=O)c2cncc(NC(=O)Cc3ccc(Cl)cc3)c2)c2cnc(N)nc21', 'IC50', 'nM', 3.48),
  ('CCOc1ccc(CC(=O)Nc2cncc(C(=O)c3cn(C(C)(C)CO)c4nc(N)ncc34)c2)nc1', 'IC50', 'nM', 112),
  ('Cc1nc(C)c2ncn(CC(=O)Nc3cncc(C(=O)c4cn(C(C)C)c5ncncc45)c3)c2n1', 'IC50', 'nM', 5840),
  ('Cc1cc(C(=O)Nc2cncc(C(=O)c3cn(C(C)C)c4ncncc34)c2)n(C)n1', 'IC50', 'nM', 1890),
  ('CN(C)C(=O)Cn1cc(C(=O)c2cncc(NC(=O)Cc3ccc(Cl)cc3)c2)c2cncnc21', 'IC50', 'nM', 3900),
  ('CCc1nc(C)c(C(=O)Nc2cncc(C(=O)c3cn(C(C)C)c4ncncc34)c2)o1', 'IC50', 'nM', 192),
  ('NC(=O)Cn1cc(C(=O)c2cncc(NC(=O)Cc3ccc(Cl)cc3)c2)c2cncnc21', 'IC50', 'nM', 1220),
  ('COCC(C)(C)n1cc(C(=O)c2cncc(NC(=O)Cc3ccc(Cl)cn3)c2)c2cncnc21', 'IC50', 'nM', 1.57);

### Prompt Return value of IC50 for input `Cn1cc(C(=O)c2cncc(NC(=O)Cc3cccc(Cl)c3)c2)c2cncnc21` , no commentary.
### Response 430

### Prompt Supply reported IC50 belonging to this molecule: `Cn1cc(C(=O)c2cncc(NC(=O)Cc3c(F)cccc3F)c2)c2cncnc21`
### Response 3570

### Prompt Give IC50 for `Cc1cc(C(=O)Nc2cncc(C(=O)c3cn(C(C)C)c4ncncc34)c2)n(CC(F)(F)F)n1`
### Response 3150

### Prompt Name the recorded IC50 of the molecule listed here: `CC(C)(CO)n1cc(C(=O)c2cncc(NC(=O)Cn3cc(C(F)(F)F)ccc3=O)c2)c2cnc(N)nc21`
### Response 374

### Prompt Complete the entry with IC50 for `CC(CO)(CO)n1cc(C(=O)c2cncc(NC(=O)c3cccc(C(F)(F)F)c3)c2)c2cncnc21`
### Response 84.8

### Prompt Provide one value: measured IC50 of `COc1nccn2cc(C(=O)Nc3cncc(C(=O)c4cn(C(C)C)c5ncncc45)c3)nc12`
### Response 64.6

### Prompt Kindly indicate its recorded IC50. Item: `Cn1cc(C(=O)c2cncc(NC(=O)CCc3ccccc3Cl)c2)c2cncnc21`
### Response 2350

### Prompt Give IC50 for the following molecule: `Cn1cc(C(=O)c2cncc(NC(=O)Cc3c(F)cc(F)cc3F)c2)c2cncnc21`
### Response 1280

### Prompt For the molecule `CC(C)n1cc(C(=O)c2cncc(NC(=O)Cc3c[nH]c4ccc(Cl)cc34)c2)c2cncnc21` , report IC50.
### Response 65.7

### Prompt State its IC50: `COCC(C)(C)n1cc(C(=O)c2cncc(NC(=O)Cc3ccc(F)cn3)c2)c2cncnc21`
### Response 10.6
